- target desc: T1, recombinant human regenerating islet-derived protein 1α (REG1A) (human, UniProt P05451 23-166, limits assumed)
- T1 construct: also called recombinant human REG1A; recombinant REG1A
- T1 sequence (looked up): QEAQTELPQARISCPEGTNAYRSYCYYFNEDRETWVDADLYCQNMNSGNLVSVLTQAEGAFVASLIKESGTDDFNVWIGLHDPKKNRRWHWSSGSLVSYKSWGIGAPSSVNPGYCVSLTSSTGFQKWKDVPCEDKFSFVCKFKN
- assay text: sandwich ELISA; capture 4H8F1; REG1A 3.70 ng/mL
reported endpoint: OD value (OD)
Answers are plain numbers, in OD.

Given item antibody 21B11D2 (antibody, mouse IgG2b, kappa, V domains shown, Mouse monoclonal from hybridoma, stated mouse IgG1/Kappa; Used unlabelled as capture and biotin-labelled as detection antibody; also called 21B11D2-biotin) VH: QAQLQQSGAELVRPGASVTLSCKASGYIFTDYEMHWVKQTPVHGLEWIGAIDPETGGTAYNQKFKGKARLTADKSSSTAYMELRSLTSEDSAVYYCTIYYTNHFDYWGQGTTLTVSS VL: DVVMTQTPLSLPVSLGDQASISCRSSQSLVYSNGDTYLYWYLQKPGQSPKLLIYKVSNRFSGVPDRFSGSGSGTDFTLKISRVEAEDLGVYFCSQSTHVPLTFGAGTKLELKR , the value recorded as its OD value is 0.068
